# procedureSummary: in vitro
# condition: human
measure: IC50 at 48 h

input: Value lookup for IC50 at 48 h; key = `CC1=C(CO)C(=O)O[C@@H]([C@@H](C)[C@H]2CC[C@H]3[C@@H]4C[C@H]5O[C@]56[C@@H](O)[C@@H](O)CC(=O)[C@]6(C)[C@H]4CC[C@]23C)C1`
output: > 100 µM

---

# procedureSummary: in vitro
# condition: human
measure: IC50 at 48 h

input: Value lookup for IC50 at 48 h; key = CC1=C(CO)C(=O)O[C@@H]([C@@H](C)[C@H]2CC[C@H]3[C@@H]4C[C@H]5O[C@]56[C@@H](O)[C@@H](O)CC(=O)[C@]6(C)[C@H]4CC[C@]23C)C1 [Compound 14, viscosalactone B]
output: > 100 µM
